Reference source: ChEMBL document CHEMBL4052613

- Test system: PWR-1E
- measurementProtocol: Antiproliferative activity against human PWR-1E cells after 3 days by WST-1 assay
- Assay type: cell-based
- appliedConditions: 72 h
pIC50: −log10 of the molar value.

{"testSmiles": "COc1cc(/C=C/C(=O)CC(=O)/C=C/c2ccc(O)c(OC)c2)ccc1O", "pIC50": 5.09}
